Compiled notes: published IC50 values involving Poly [ADP-ribose] polymerase 1 (Homo sapiens).

C[S+]([O-])CCC(=O)Nc1cccc2c1Cc1c-2[nH]c(=O)c2c1CCCC2 (centres unmarked)
89.8 nM

Look up IC50 for the entries below, preserving their order.
1. O=c1[nH]c(-c2ccc(C(F)(F)F)cc2)nc2c1ccn2CO
2. Cn1ccc2c(=O)[nH]c(-c3ccccc3)nc21
3. NC(=O)c1cccc2c(F)n(-c3ccc([C@]4(F)CCCNC4)cc3)nc12
4. N/C(=N\O)c1ccc2c(=O)[nH]c(-c3ccc(C(F)(F)F)cc3)cn12
5. CC1=CN2C(=Nc3cccc4c(=O)[nH]nc2c34)C=C1
6. Cc1ccc(N2CCN([C@H]3C=C(c4nc5c(c(=O)[nH]4)CC4(CC5)CC4)CC3)CC2)cc1Cl

Result:
1. 1880 nM
2. 3920 nM
3. < 100 nM
4. > 50000 nM
5. 81.9 nM
6. 1 to 500 nM

Here are 7 compounds. What values of IC50 were reported for them?
1. CCNC(=O)c1ccc(OC2CN(Cc3cnc4cc(C)c(=O)[nH]c4c3)C2)cn1
2. O=C(CCCc1nc2ccccc2c(=O)[nH]1)N1CCC(c2nnc(-c3cnccn3)o2)CC1
3. O=c1[nH]c([C@@H]2CC[C@@H](N3CCN(c4ccc(Cl)cc4)CC3)C2)nc2c1CC1(CC2)CC1
4. O=C(CCSc1nc2ccccc2c(=O)[nH]1)N1CCC(c2nnc(-c3ccccc3)o2)CC1
5. O=C(c1cc(Cn2c(=O)[nH]c(=O)c3ccccc32)ccc1F)N1CCC(n2cc(Br)cn2)CC1
6. Cc1cc2ncc(CN3CC(Oc4ccc(C(=O)NC5CC5)nc4)C3)cc2[nH]c1=O
7. O=c1[nH]c2c(c3cnccc13)COC(C1CCCC1)C2 (racemic)

Result:
1: 6.2 nM; 2: 8540 nM; 3: 5000 to 500000 nM; 4: 1510 nM; 5: 0.1 to 10 nM; 6: 9.4 nM; 7: 1790 nM

Hello, I would appreciate it if you could give IC50 for each entry below.
1. O=c1[nH]c(CCCN2CCN(c3ccc(Cl)cc3)CC2)nc2c1CC1(CC2)CC1
2. CCc1nc2ccc([C@@H](C)N3CCN(c4ccc(C(=O)NC)nc4F)CC3)c(F)c2[nH]c1=O (single isomer, unassigned)
3. Cc1ccc(C)c(N2CCN([C@H]3C=C(c4nc5c(c(=O)[nH]4)CC4(CC5)CC4)CC3)CC2)c1
4. N#Cc1ccc(N2CCN([C@H]3C=C(c4cc5ncc(F)cc5c(=O)[nH]4)CC3)CC2)cc1
5. Cn1ccc2c(=O)[nH]c(N3CCN(c4ncccn4)CC3)nc21
6. N=C(N)c1ccc2c(=O)[nH]c(-c3ccc(C(F)(F)F)cc3)cn12
7. CN1C(=O)C2CN(C(=O)c3cc(Cc4n[nH]c(=O)c5ccccc45)ccc3F)CC2C1=O (centres unmarked)
8. CC(C)(C)OC(=O)N1CCC(C2Cc3[nH]c(=O)c4ccccc4c3CO2)CC1 (racemic)

Result:
1 to 500 nM
15 nM
501 to 5000 nM
0.5 to 5 nM
339 nM
> 50000 nM
12.5 nM
15.9 nM

* * *

Hi, quick share: literature IC50 data for Poly [ADP-ribose] polymerase 1 (Homo sapiens), several sources combined.

Would you please look over these solved cases?
CC(=O)N1CCN(c2nc3c(ccn3C)c(=O)[nH]2)CC1
229 nM
O=C1OCc2cc(N3CCN([C@H]4C=C(c5cc6ncccc6c(=O)[nH]5)CC4)CC3)ccc21
0.5 to 5 nM
O=C(CCCc1nc2ccccc2c(=O)[nH]1)N1CCC(n2c(=O)[nH]c3ncccc32)CC1
2440 nM
CNC(=O)c1ccc(N2CCN([C@@H]3C=C(c4nc5c(c(=O)[nH]4)CC4(CC5)CC4)CC3)CC2)cc1
1 to 500 nM
NC(=O)c1cccc2[nH]c(C3NCc4ccccc43)nc12 (centres unmarked)
< 500 nM
NC(=O)c1ccc(N2CCN([C@H]3C=C(c4cc5ncccc5c(=O)[nH]4)CC3)CC2)cc1
0.5 to 5 nM

// batch mode: one IC50 value per listed entry
1. CCOC(=O)Nc1nc2cc(-c3n[nH]c(=O)c4cc(F)c(F)cc34)ccc2[nH]1
2. Cc1ccc2c(=O)[nH]c(-c3ccc(C(F)(F)F)cc3)cn12

Result:
1: > 10000 nM; 2: 172 nM
